Value source: PubChem BioAssay

Provide the recorded growth inhibition for the entries that follow.
TEST METHOD NOTES: Restrictive medium S. cerevisiae growth inhibition, OD615, pilot screen of yeast lifespan reduction project, restrictive growth control (AID 706);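 note: modified DeaD lifespan yeast strain shifted to restrictive glucose medium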
CONDITION INFO: OD615, 48 h, at 10 µM, active compounds read high
Active and inactive are the calls of the source.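 Rule for the calls: active = growth inhibition above a set limit, 3 SD over mean compound inhibition, in both replicates (cut at about 43% in these data); inconclusive = above the limit in only one replicate; inactive = at or below the limit in both replicates.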

Query: growth inhibition; subject: COc1cc(C2NC(=O)NC(C)=C2C(=O)OC2CCCCC2)cc(Br)c1O (stereo unspecified)
-9.77% (inactive)

And for O=C1CCc2cc(S(=O)(=O)N3CCCC3C(=O)N3CCN(c4ccccc4)CC3)ccc2N1 (stereo unspecified) ?
-12.1% (inactive)

CCOC(=O)CN1CC23C=CC(O2)C(C(=O)NCc2ccccc2OC)C3C1=O (stereo unspecified) ?
8.84% (inactive)

And then CC(=O)Nc1nonc1-c1nc2ccccc2n1N(C(C)=O)C(C)=O , what is it?
8.55% (inactive)

Note, next up: Cn1cccc1Cc1nnc(SCC(=O)NC2CCCCC2)n1CCc1ccccc1
23.6% (inactive)

Okay, and O=C(Nc1ccc(Br)cc1)c1cnccn1 ?
-21.8% (inactive)

Please do the same for COc1ccc(CNC(=O)CSc2nnnn2-c2ccc(O)cc2)cc1 as well.
-9.08% (inactive)

Same thing, different molecule: COc1ccccc1C1CC(c2ccc(Cl)cc2Cl)Nc2nc(N)nn21 (stereo unspecified)
25.2% (inactive)

Can you handle CN(C(=O)c1ccc(=O)[nH]c1)C1(C(=O)NC2CCCCC2)CCCCC1 next?
-8.31% (inactive)

And the next one, Clc1ccc(C2CC(c3cccs3)n3ncnc3N2)c(Cl)c1 (stereo unspecified) ?
17.4% (inactive)

And CC(c1ccccc1)N1CC(C(=O)N2CCN(c3ccccc3)CC2)CC1=O (stereo unspecified) ?
1.48% (inactive)

Record: COc1ccccc1N1CCN(C(=O)c2cc3cc(Br)ccc3oc2=O)CC1
-11.9% (inactive)

Then CCOc1cc(C2NC(=O)NC(C)=C2C(=O)OC(C)CC)cc(Br)c1O (stereo unspecified) ?
-10.5% (inactive)

Try this molecule next: Cc1cc(NC(=O)Cn2c(=O)n(Cc3ccccc3)c(=O)c3ccccc32)no1
-24.7% (inactive)

Quick one: Cc1cccc(OCc2nnc(SCC(=O)Nc3ccc(C)c(C)c3)o2)c1
1.43% (inactive)

Follow-up entry: CCOC(=O)c1ccc(NC(=O)CSc2nc3c(c(=O)n2CC)SC(C)C3)cc1 (stereo unspecified)
-18.3% (inactive)

How about this molecule: C=CCOC(=O)CCCC(=O)NC1CCCCC1
5.64% (inactive)

Same thing, different molecule: CC(=O)Nc1ccc(S(=O)(=O)Nc2cccc(C(=O)NC(C)(C)C)c2)cc1
-5.24% (inactive)

Cool, now COc1cc(OC)cc(C(=O)Nc2cc(NC(=O)c3ccco3)ccc2OC)c1
3.21% (inactive)

Repeat for the following molecule: COC(=O)NCC(c1cccnc1)N1CCN(c2ccccc2)CC1 (stereo unspecified)
-0.34% (inactive)

Next molecule: O=C1c2ccccc2C(Nc2ccc(Cl)cn2)N1c1ccccn1 (stereo unspecified)
0.32% (inactive)

Now the molecule CC1CN(S(=O)(=O)c2ccc(Cl)c(S(=O)(=O)N3CC(C)OC(C)C3)c2)CC(C)O1 (stereo unspecified)
-17.1% (inactive)

Also need Cc1ccc(C(C)NC(=O)c2ccco2)cc1C (stereo unspecified) , thanks.
-4.3% (inactive)

Also need COc1ccccc1-c1nc(NC(C)=O)n[nH]1 , thanks.
-8.54% (inactive)

What do you get for O=S(=O)(NCCc1csc(-c2cccnc2)n1)c1ccc(Cl)s1 ?
13.1% (inactive)

Next record, please: COc1cc(C2/C(=C(\O)c3cc(C)ccc3C)C(=O)C(=O)N2CCN(C)C)ccc1O (stereo unspecified)
-6.28% (inactive)

# repeat for Cc1ccc(N2C(=O)c3oc4ccccc4c(=O)c3C2c2cccnc2)nc1 (stereo unspecified)
-4.26% (inactive)

Now the molecule Cc1ccc2c(c1)NC(=O)C(CC(=O)O)O2 (stereo unspecified)
0.555% (inactive)

How about this molecule: CC(CCCC(C)(C)O)NCCO (stereo unspecified)
-4.3% (inactive)

Try the molecule CC(=O)Nc1ccc(S(=O)(=O)N2CCC(c3nc4ccc(C)cc4[nH]3)CC2)cc1
2.08% (inactive)

Check COc1ccc(-c2nn(CC(=O)N(C)C)c(=O)c3ccccc23)cc1 too.
-6.71% (inactive)

Next record, please: CCN1CCN(CCNC(=O)C2CCCN(Cc3nc(-c4cccc(Cl)c4)oc3C)C2)CC1 (stereo unspecified)
-13.1% (inactive)

Then what about the molecule Cc1nnc(NC(=O)CCCCCN2C(=O)C3C4C=CC(C4)C3C2=O)s1 (stereo unspecified) ?
-1.29% (inactive)

Proceed to Cc1ccc(-c2nc(-c3ccccn3)no2)cc1
10.2% (inactive)

And for FC(F)(F)C12CC(c3ccccc3)=NCCN1CCN2 (stereo unspecified) ?
4.43% (inactive)

Cool, now O=C(CS(=O)(=O)c1cn(Cc2cccc(F)c2)c2ccccc12)N1CCCCC1
-2.79% (inactive)

Now consider Cc1cccc2sc(NC(=O)c3ccc(Cl)s3)nc12 .
-21.5% (inactive)

Now the molecule COCCCNC(=O)c1ccc(Cn2c(=O)[nH]c3ccccc3c2=O)cc1
-0.91% (inactive)

// query: CCc1cc(=O)oc2cc(C)cc(O)c12
-7.76% (inactive)

# repeat for O=C(NCc1ccc2c(c1)OCO2)c1cnc2n(c1=O)CCS2
4.35% (inactive)

Would you kindly repeat that for Cc1ccnc(N2C(=O)c3ccccc3C2Nc2cccc(C)c2C)c1 (stereo unspecified) ?
-0.8% (inactive)

Item: COc1cc2c(cc1OC)C1=C(C#N)CN(CC(=O)O)CN1CC2
11.3% (inactive)

Another molecule to look at: CC(NC(=O)COc1ccccc1)C(c1ccccc1)N1CCN(C)CC1 (stereo unspecified)
-7.49% (inactive)

How about this molecule: Cc1cc(OCc2ccc(F)cc2)nc(-c2ccccc2O)n1
-3.18% (inactive)

What about this molecule? Cc1cc(C)c(C#N)c(=N)o1
20.7% (inactive)

Here is the next molecule: CCN(CC)c1ccc(CNC23CN4CN(CN(C4)C2)C3)cc1
2.79% (inactive)
